test system: velvetleaf; test: Test C postemergence; assay type: in vivo, Abutilon theophrasti; details: 62 g ai/ha
Plant response rating (scale of 0 to 100 where 0 is no effect and 100 is complete control) overview
Keep the answer to the number alone.

A selection of reference data follows.
In [3]: df
Out[3]:
                    structure_smiles_string  readout_value
0  Fc1ccc(-c2nc(OCC(F)(F)F)n(Cc3ccnc(C(F)(F)F)c3)n2)cc1             60
1  CCc1nc(-c2ccc(C(F)(F)F)cc2)nn1Cc1ccnc(C(F)(F)F)c1             55
2  COc1nc(-c2ccc(F)cc2)nn1Cc1ccnc(C(F)(F)F)c1             35

Switching to the query record.
Query string: Hello, please tell me recorded Plant response rating (scale of 0 to 100 where 0 is no effect and 100 is complete control) for this one: "COc1nc(-c2ccccc2)nn1Cc1ccnc(C(F)(F)F)c1"
Result string: 10

* * *

Plant response rating (scale of 0 to 100 where 0 is no effect and 100 is complete control) overview
tested on: chickweed; assay: Test C postemergence; format: in vivo, Stellaria media; conditions: 31 g ai/ha
Keep the answer to the number alone.

In [3]: df
Out[3]:
                    structure_smiles_string  readout_value
0  Fc1ccc(-c2nc(OCC(F)(F)F)n(Cc3ccnc(C(F)(F)F)c3)n2)cc1             95
1  FC(F)(F)COc1nc(-c2ccc(Cl)cc2)nn1Cc1ccnc(C(F)(F)F)c1             90
2  COc1nc(-c2ccc(Cl)cc2)nn1Cc1ccnc(C(F)(F)F)c1             80
3  CCCOc1nc(-c2ccccc2)nn1Cc1ccnc(C(F)(F)F)c1             55

Query string: Hello, please tell me recorded Plant response rating (scale of 0 to 100 where 0 is no effect and 100 is complete control) for this one: "FC(F)(F)COc1nc(-c2ccccc2)nn1Cc1ccnc(C(F)(F)F)c1"
Result string: 55

Query string: Hello, please tell me recorded Plant response rating (scale of 0 to 100 where 0 is no effect and 100 is complete control) for this one: "CCOc1nc(-c2ccc(Cl)cc2)nn1Cc1ccnc(C(F)(F)F)c1"
Result string: 95

* * *

Plant response rating: Kochia overview
system: kochia; assay: Test D preemergence; assay type: in vivo, Kochia scoparia; settings: 62 g ai/ha, scale 0 to 100
Source text: […]
Keep the answer to the number alone.

                    structure_smiles_string  readout_value
0  FC(F)(F)COc1nc(-c2ccccc2)nn1Cc1ccnc(C(F)(F)F)c1             90
1  CCOc1nc(-c2ccc(F)cc2)nn1Cc1ccnc(C(F)(F)F)c1            100
2  CCOc1nc(-c2ccccc2)nn1Cc1ccnc(C(F)(F)F)c1             95

Switching to the query record.
Query string: Hello, please tell me recorded Plant response rating: Kochia for this one: "CCc1nc(-c2ccc(C(F)(F)F)cc2)nn1Cc1ccnc(C(F)(F)F)c1"
Result string: 70

* * *

Plant response rating overview
tested on: johnsongrass; assay: Test E preemergence; format: in vivo, Sorghum halepense; conditions: 62 g ai/ha, scale 0 to 100
Keep the answer to the number alone.

A selection of reference data follows.
>>> print(df.to_string())
                    structure_smiles_string  assay_system  readout_value
0  CCCc1nc(-c2ccc(F)cc2)nn1Cc1ccnc(C(F)(F)F)c1  johnsongrass             50
1  CCOc1nc(-c2ccc(F)cc2)nn1Cc1ccnc(C(F)(F)F)c1  johnsongrass             65
2  CCc1nc(-c2ccc(C(F)(F)F)cc2)nn1Cc1ccnc(C(F)(F)F)c1  johnsongrass             40

Switching to the query record.
Query string: Report value only: Plant response rating, johnsongrass, "CCOc1nc(-c2ccccc2)nn1Cc1ccnc(C(F)(F)F)c1"
Result string: 100

Values from patent US10681909B2
